Target: PDGFR (Homo sapiens, UniProt P09619)
Construct: endogenous in cells
Sequence (P09619 33-1106): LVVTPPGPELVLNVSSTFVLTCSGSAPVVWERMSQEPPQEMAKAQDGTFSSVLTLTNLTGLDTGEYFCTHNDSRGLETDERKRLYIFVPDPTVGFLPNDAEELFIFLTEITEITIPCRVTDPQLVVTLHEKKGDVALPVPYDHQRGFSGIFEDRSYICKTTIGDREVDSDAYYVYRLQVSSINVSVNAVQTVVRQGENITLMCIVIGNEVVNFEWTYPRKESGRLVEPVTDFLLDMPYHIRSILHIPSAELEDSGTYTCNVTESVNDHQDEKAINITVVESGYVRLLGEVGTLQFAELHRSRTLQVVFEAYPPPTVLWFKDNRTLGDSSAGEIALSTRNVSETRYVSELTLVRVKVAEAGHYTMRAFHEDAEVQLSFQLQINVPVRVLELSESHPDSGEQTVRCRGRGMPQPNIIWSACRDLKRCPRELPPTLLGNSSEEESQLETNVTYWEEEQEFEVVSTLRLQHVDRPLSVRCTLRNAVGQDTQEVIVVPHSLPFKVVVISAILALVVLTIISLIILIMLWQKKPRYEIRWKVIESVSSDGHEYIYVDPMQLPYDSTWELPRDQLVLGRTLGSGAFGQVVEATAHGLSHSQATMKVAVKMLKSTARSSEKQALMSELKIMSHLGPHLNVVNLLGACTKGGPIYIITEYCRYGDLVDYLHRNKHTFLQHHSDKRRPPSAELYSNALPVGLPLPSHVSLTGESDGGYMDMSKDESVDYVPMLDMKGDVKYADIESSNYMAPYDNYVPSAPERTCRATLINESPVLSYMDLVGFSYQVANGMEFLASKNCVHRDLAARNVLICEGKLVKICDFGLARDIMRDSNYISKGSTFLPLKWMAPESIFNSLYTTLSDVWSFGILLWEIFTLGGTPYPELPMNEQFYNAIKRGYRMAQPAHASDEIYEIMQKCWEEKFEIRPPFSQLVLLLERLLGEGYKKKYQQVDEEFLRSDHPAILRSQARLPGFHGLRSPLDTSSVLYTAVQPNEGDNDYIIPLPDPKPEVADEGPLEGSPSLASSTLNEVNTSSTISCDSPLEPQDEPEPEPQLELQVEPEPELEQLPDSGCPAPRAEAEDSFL
Test: PDGF-R Cellular Assay (ELISA)
Conditions: U1242 human glioblastoma cells
Protocol: The following examples illustrates the ability of the exemplary compounds to inhibit receptor tyrosine kinases, such as HER2 and/or EGFR. […] The lysate was incubated in the coated plates for 1 hour and then washed four times in TBST (35 mM Tris-HCl pH 7.0, 0.15M NaCl, 0.1% Triton X-100). […] Absorbance was then measured at 410 nm.
pIC50: −log10 of the molar value.
QUANTITY_KIND: pIC50

>  <QUERY_SMILES>
CCOC(=O)c1cnc2c(F)cc(F)cc2c1Sc1ccc(Cl)cc1

>  <ASSAYED_TARGET>
PDGFR (Homo sapiens, UniProt P09619)

>  <QUANTITY_KIND>
pIC50

>  <RESULT>
< 4.30

$$$$

Report pIC50 for `CCOC(=O)c1cnc2c(F)ccc(F)c2c1Sc1cccc(C(F)(F)F)c1` please. < 4.30

Report pIC50 for `CCOC(=O)c1cnc2ccc(C(F)(F)F)cc2c1Nc1ccc(C(F)(F)F)cc1` please. < 4.00

Report pIC50 for `CCOC(=O)c1cnc2cc(Cl)c(F)cc2c1Sc1ccc(Cl)cc1` please. < 4.30

Report pIC50 for `CCOC(=O)c1cnc2ccc(C(F)(F)F)cc2c1Nc1cccc(Br)c1` please. < 4.00

Report pIC50 for `CCOC(=O)c1cnc2ccc(C(F)(F)F)cc2c1Nc1cccc(C(F)(F)F)c1` please. < 4.00

Report pIC50 for `CCOC(=O)c1cnc2c(F)ccc(F)c2c1Sc1ccc(Cl)cc1` please. < 4.30

====

Below is a list of entries, each paired with its recorded pIC50 value.
Molecular target: EGFR (Homo sapiens, UniProt P00533)
Sequence (P00533 25-1210): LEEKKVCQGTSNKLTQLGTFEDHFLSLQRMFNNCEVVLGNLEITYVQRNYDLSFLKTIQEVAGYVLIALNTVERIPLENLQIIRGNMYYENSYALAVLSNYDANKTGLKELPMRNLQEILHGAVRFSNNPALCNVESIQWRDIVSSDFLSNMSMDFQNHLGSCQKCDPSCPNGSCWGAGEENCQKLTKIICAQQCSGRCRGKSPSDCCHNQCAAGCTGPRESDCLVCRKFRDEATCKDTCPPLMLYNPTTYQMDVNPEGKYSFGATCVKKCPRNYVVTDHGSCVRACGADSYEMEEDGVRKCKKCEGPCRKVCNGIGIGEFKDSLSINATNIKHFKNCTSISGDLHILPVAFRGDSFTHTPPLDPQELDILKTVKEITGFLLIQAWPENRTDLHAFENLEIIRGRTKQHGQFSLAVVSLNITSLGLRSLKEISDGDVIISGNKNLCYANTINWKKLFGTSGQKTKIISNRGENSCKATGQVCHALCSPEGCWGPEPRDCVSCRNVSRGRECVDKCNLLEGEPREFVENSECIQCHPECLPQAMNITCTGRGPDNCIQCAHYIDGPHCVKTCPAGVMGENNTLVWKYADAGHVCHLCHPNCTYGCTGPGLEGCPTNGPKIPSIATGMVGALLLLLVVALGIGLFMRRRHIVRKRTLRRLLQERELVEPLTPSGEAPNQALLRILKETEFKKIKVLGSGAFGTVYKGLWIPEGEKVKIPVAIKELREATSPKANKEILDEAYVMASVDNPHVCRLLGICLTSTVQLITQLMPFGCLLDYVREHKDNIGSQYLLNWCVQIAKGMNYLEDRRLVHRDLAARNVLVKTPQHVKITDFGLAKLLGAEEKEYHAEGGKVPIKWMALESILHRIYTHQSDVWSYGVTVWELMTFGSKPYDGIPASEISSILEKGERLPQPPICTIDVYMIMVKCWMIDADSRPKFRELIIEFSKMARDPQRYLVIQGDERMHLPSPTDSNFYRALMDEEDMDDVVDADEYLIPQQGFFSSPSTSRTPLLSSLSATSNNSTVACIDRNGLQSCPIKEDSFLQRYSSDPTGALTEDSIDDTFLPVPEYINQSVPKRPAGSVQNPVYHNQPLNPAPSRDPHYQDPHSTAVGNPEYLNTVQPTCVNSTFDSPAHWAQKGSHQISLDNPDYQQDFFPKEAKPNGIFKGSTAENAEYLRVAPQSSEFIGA
Experiment: EGFR Whole Cell Kinase Assay (ELISA)
Settings: NIH3T3 clone C7 over-expressing human EGF receptor
Description: The following examples illustrates the ability of the exemplary compounds to inhibit receptor tyrosine kinases, such as HER2 and/or EGFR. […] EGFR kinase activity (EGFR-3T3 assay) in whole cells was measured as described below: […]
pIC50: −log10 of the molar value.

>  <COMPOUND>
CCOC(=O)c1cnc2ccc(C(F)(F)F)cc2c1Nc1cccc(Br)c1 [Compound A716]

>  <RESULT>
< 4.00

$$$$
>  <COMPOUND>
CCOC(=O)c1cnc2c(F)ccc(F)c2c1Sc1cccc(C(F)(F)F)c1 [Compound A713]

>  <RESULT>
< 4.00

$$$$
>  <COMPOUND>
CCOC(=O)c1cnc2c(F)ccc(F)c2c1Sc1ccc(Cl)cc1 [Compound A732]

>  <RESULT>
< 4.00

$$$$
>  <COMPOUND>
CCOC(=O)c1cnc2cc(Cl)c(F)cc2c1Sc1ccc(Cl)cc1 [Compound A731]

>  <RESULT>
< 4.30

$$$$
>  <COMPOUND>
CCOC(=O)c1cnc2ccc(C(F)(F)F)cc2c1Nc1ccc(C(F)(F)F)cc1 [Compound A722]

>  <RESULT>
< 4.00

$$$$
>  <COMPOUND>
CCOC(=O)c1cnc2ccc(C(F)(F)F)cc2c1Nc1cccc(C(F)(F)F)c1 [Compound A721]

>  <RESULT>
< 4.00

$$$$

Attention now turns to another entry.
Report pIC50 for CCOC(=O)c1cnc2c(F)cc(F)cc2c1Sc1ccc(Cl)cc1 [Compound A730] please. < 4.30

// provenance: patent US5650415A
